Study System: Neuronal acetylcholine receptor; alpha3/beta4 (Rattus norvegicus) (UniProt P04757+P12392)
Assay Details: Antagonist activity at rat alpha3beta4 nAChR expressed in HEK293 cells assessed as inhibition of epibatadine-induced effect at 10 uM after 30 mins by fluorescent membrane potential assay relative to mecamylamine
Assay type: cell-based
Bridge positions count the residues as written; N and C are the ends. Square brackets hold non-standard residues; d marks the D form. Peptide text beside a SMILES is read from it. Nle = CCCC[C@H](N)C(=O)O; Nva = CCC[C@H](N)C(=O)O; Abu = CC[C@H](N)C(=O)O
Reported Property: inhibition

# Compound, Reported Property, Assay Result
measured = [
    ("CCCC[C@@H]1NC(=O)[C@H](CO)NC(=O)[C@@H]2CSSC[C@@H](C(=O)O)NC(=O)[C@@H]3CCCN3C(=O)[C@H](CCC)NC(=O)[C@H](Cc3c[nH]c4ccccc34)NC(=O)[C@H](Cc3ccccc3)NC(=O)[C@H](CSSC[C@H](NC(=O)CN)C(=O)N2)NC(=O)[C@H](CC)NC(=O)[C@@H]2CCCN2C1=O (H-GCCS[Nle]P[Abu]CFW[Nva]PC-OH; disulfide 2-8, 3-13)", "inhibition", "41.1%"),
]

Consider the additional compound presented here.
Which inhibition reading was recorded for the compound CCCC[C@@H]1NC(=O)[C@H](CO)NC(=O)[C@@H]2CSSC[C@@H](C(=O)O)NC(=O)[C@@H]3CCCN3C(=O)[C@H](CCC)NC(=O)[C@H](CC)NC(=O)[C@H](Cc3ccccc3)NC(=O)[C@H](CSSC[C@H](NC(=O)CN)C(=O)N2)NC(=O)[C@H](CC)NC(=O)[C@@H]2CCCN2C1=O (H-GCCS[Nle]P[Abu]CF[Abu][Nva]PC-OH; disulfide 2-8, 3-13) ? 40.3%

meta.source: ChEMBL document CHEMBL3232963
